tested on: SNB-19 CNS; test: NCI tumour cell line growth inhibition, 48 h
Entries and their measured TGI follow.
REPORTED_METRIC: TGI

• Cc1ccc(S(=O)(=O)/N=C(\NN)Nc2ccc(Cl)cc2)cc1 = > 100 µM
• CC(=O)OC1CC2C(C)(C)C(=O)C=C[C@]2(C)C2CCC3(C)C(c4ccoc4)C(=O)[C@H]4O[C@]43[C@]12C (stereo not given in full) = 67.5 µM
• CCOC(=O)N1CCN(c2ccc3c(C)cc(C)nc3n2)CC1 = > 100 µM
• C1CCN(c2nsc(N3CCCCC3)n2)CC1 = > 100 µM
• CC(=O)OCC1OC(n2cc(F)c(=O)[nH]c2=O)C(N)C(OC(C)=O)C1OC(C)=O (stereo not given) = > 100 µM
• CCCCNN = > 100 µM
• Cn1c(=O)c2c(nc3n(Cc4ccccc4)c(=O)c(NCCBr)cn23)n(C)c1=O = > 100 µM
• Cc1c2c(cc3c1[nH]c1ccccc13)C=NCC2 = 45.8 µM
• OCCSCc1ccccc1 = > 100 µM
• COC(=O)/C=C(\C)C(=O)N(C)c1ccccc1I = > 100 µM

* * *

Catalogue of TGI readings, one per entry.
tested on: NCI-H226 lung; assay: NCI tumour cell line growth inhibition, 48 h
REPORTED_METRIC: TGI

- CCNC(=O)C#CC(=O)NCC: > 100 µM
- Cc1sc(C)c(Cc2c(C)sc(C)c2CCl)c1CCl: > 100 µM
- O=C1/C(=C\c2cccc(Oc3ccccc3)c2)S(=O)(=O)C(c2ccccc2)N1c1ccccc1Cl (stereo unspecified): > 100 µM
- Cn1ccn2c3nc4ccccc4nc3c(=O)c(C#N)c12: > 100 µM
- Cc1cc(CNC(=O)OCc2ccccc2)c(C)c2c1Oc1ccccc1O2: > 93.6 µM
- O=C1CC(=O)c2c(O)cc(O)c(c2O)-c2c(ccc(O)c2O)C2=CC(=O)c3c(O)cc(O)c(c3O2)-c2c1ccc(O)c2O (tested in a mixture with another compound): > 50 µM

* * *

test system: M14 melanoma; assay: NCI tumour cell line growth inhibition, 48 h
REPORTED_METRIC: TGI

- COc1ccccc1C1SCC(=O)N1c1ccc(-c2ccc(-n3c(-c4ccccc4)nc4ccccc4c3=O)cc2)cc1 (stereo unspecified): > 100 µM
- Nc1nnc2cc(Cl)ccc2n1: > 100 µM
- COC(=O)c1c2c(c(C)[n+]([O-])c1C)C(=O)C=C(NCc1ccc(F)c(F)c1)C2=O: 1.38 µM
- O=C(O)CCCCCOc1cccnc1/C=N/NC1=NCCN1: > 100 µM
- CN(C)c1ccc(/C=C2\N=C(NN)NC2=O)cc1: > 100 µM
- CC(C(=O)ON1C(=O)CCC1=O)c1ccc(C(=O)c2ccccc2)s1 (stereo unspecified): > 100 µM
- N#Cc1c(-c2ccccc2)cc(-c2ccc(Nc3nc(Nc4ccc(Cl)cc4)nc(Nc4ccc(Cl)cc4)n3)cc2)nc1N: 3.67 µM
- CCC(=O)C(C)C1=Nc2nnc(CCCCCCCc3nnc4n3C(=O)C(C(C)C(=O)CC)=N4)n2C1=O (stereo unspecified): > 100 µM
- C=C1C(=O)OC2(C)C3CCC(C3)C12 (stereo unspecified): 95.7 µM
- CN(C)C(N)=NC#N: > 100 µM
- COc1cc2noc(-c3ccccc3)c2cc1OC: > 100 µM
- CC(=O)N1CCc2c([nH]c3ccc(Br)cc23)C1c1ccccc1 (stereo unspecified): > 10 µM
- COc1ccc(-c2cc(/C=C3\C(=O)Nc4ccc(Cl)cc43)[nH]n2)cc1: 15.2 µM
- NC(=O)c1cc(Br)cc(C2CCCCC2)c1O: 25.6 µM
- CC1(C)OC(=O)C=C([O-])O1.CC1(C)OC(=O)C=C([O-])O1.O=S(=O)([O-])c1ccc([O-])c2ncccc12.O=S(=O)([O-])c1ccc([O-])c2ncccc12.[Ti+4]: > 100 µM
- Cc1ccnc2[nH]c(-c3cccc(Cl)c3)cc(=O)c12: > 100 µM
- CC(C)(C)NCc1cc(C(C)(C)C)cc(-c2ccc(Cl)cc2)c1O: 28.8 µM
- CN(C(=O)Cc1ccc(Cl)c(Cl)c1)[C@H]1CCCC[C@@H]1[N+]1(C)CCCC1: > 100 µM
- CN1NC2(CCCCC2)ON=C1c1ccccc1: > 100 µM
- Cn1c(=O)c2c(nc3n(Cc4ccccc4)c(=O)c(NCCBr)cn23)n(C)c1=O: > 100 µM
- CCN1C(=S)N(CC)C2C1NC(=S)N2/N=C/C=C/c1ccccc1 (stereo unspecified): 12.9 µM
- NNc1nc2ccccc2c(=O)n1NC(=O)C(=O)Nc1cccc(C(F)(F)F)c1: > 100 µM
- C1CSCCCSCCSCCCSC1: > 100 µM
- O=c1[nH]nc(-c2ccccc2)n1/N=C/c1c[nH]c2ccccc12: > 100 µM
- CC1=C[C@H]2c3c(c(O)c(O)c4oc5ccccc5c(=O)c34)[C@H](c3cc(O)c(O)c4oc5ccccc5c(=O)c34)[C@H]2C(C)(C)C1: 5.66 µM
- N=c1nnc(=O)c2c(s1)-n1ncc(C(=O)O)c1NN2: > 100 µM

* * *

tested on: MDA-MB-435; assay: NCI tumour cell line growth inhibition, 48 h
Below, each of the molecules is paired with its reported TGI value.
REPORTED_METRIC: TGI

* O=C(/C=C/c1ccsc1)c1ccco1 | > 50.3 µM
* O=C(NCCC(F)(F)C(F)(F)C(F)(F)C(F)(F)F)NC1OC(CO)C(O)C(O)C1O (stereo unspecified) | > 100 µM
* Cc1cc(-c2[nH]c(C(=O)O)cc2I)on1 | > 100 µM
* C/C(=N/NC(=S)Nc1ccccc1Cl)c1cccc(/C(C)=N\NC(=S)Nc2ccccc2Cl)n1 | > 100 µM
* Cc1c(C(=O)N2CCN(c3ccc([N+](=O)[O-])cc3)CC2)[n+](=O)c2cc(Cl)c(Cl)cc2n1[O-] | > 100 µM
* CCCCCCCCCCCCCCCCCCNc1ccn(C2OC(COP(=O)(O)OCC3CCC(n4cnc5c(=O)[nH]cnc54)O3)C(O)C2O)c(=O)n1 (stereo unspecified) | > 100 µM
* CCCCNN | > 100 µM
* CC(C)CCC[C@@H](C)[C@H]1CCC2C3CC=C4C[C@@H](Oc5c6ccccc6nc6ccccc56)CCC4C3CCC21 (stereo partly specified) | > 50 µM
* O=c1[nH]c(=O)n(C2OC(CO)C(O)C2O)c2c1CCCC2 (stereo unspecified) | > 100 µM
* COC(=O)C(C)(N=Cc1ccccc1)c1ccccc1 (stereo unspecified) | > 100 µM
* Cc1ccsc1/C=N/Nc1cc(C)c2cccc(C)c2n1 | > 100 µM

* * *

system: A549 NSCLC; test: NCI tumour cell line growth inhibition, 48 h
REPORTED_METRIC: TGI

- N=C(N=C(N)N)N1CCN(c2ccncc2)CC1: > 1000 µM
- CCC(=O)C(C)C1=Nc2nnc(CCCCCCCc3nnc4n3C(=O)C(C(C)C(=O)CC)=N4)n2C1=O (configuration not stated): > 100 µM
- CC(C)SC(C)(NC(=O)C1C(C)(C)CCC1(C)C)C(=O)O (configuration not stated): > 100 µM
- CN1C(=S)C(c2ccccc2)Sc2ccccc21 (configuration not stated): > 100 µM
- C=CC1ON(Cc2ccccc2)CCc2cc(OC)c(OC)cc21 (configuration not stated): > 100 µM
- C#CC1(O)C(COP(=O)(O)OC2CC(n3cc(F)c(=O)[nH]c3=O)OC2CO)OC(n2ccc(N)nc2=O)C1O (configuration not stated): > 54.4 µM
- O=C1CSc2nc3ccccc3n2/C=N\N1: > 100 µM
- CCOC(=O)C1(Cc2ccccc2)CCCCCN1 (configuration not stated): > 100 µM
- C=C1C[C@@H](O)C[C@@]2(C)C[C@@H]3OC(=O)C(=C)[C@@H]3C[C@H]12: 81 µM
- Cc1c2c(cc3c1[nH]c1ccccc13)C=NCC2: 61.6 µM
- CN(C)C(N)=NC#N: > 100 µM
- CC(=O)[C@@H]1CCC=C2CC[C@]3(C)[C@@H](CC[C@@H]4[C@@]5(C)CCCNC(C)(C)[C@@H]5CC[C@]43C)[C@H]21: 3.73 µM

* * *

system: NCI-H226 lung; test: NCI tumour cell line growth inhibition, 48 h
REPORTED_METRIC: TGI (µM)

* COCCOC(=O)NC(=O)Nc1ccc(/C(=N/O)c2ccc(Cl)cc2)cc1 | 39.4
* CC(C)C(C/C=C1\CC(CO)(COC(=O)c2ccccc2)OC1=O)C(C)C (stereo not drawn) | 39.8

* * *

# key: entry, value: GI50
test system: UACC-62 melanoma
REPORTED_METRIC: GI50

* O=C(NCCCNc1cc(-c2cn(-c3ccccc3)nc2-c2cccc(O)c2)ccn1)c1ccccc1 | 3.15 µM
* N#Cc1c(-c2ccccc2)cc(-c2ccc(Nc3nc(Nc4ccc(Cl)cc4)nc(Nc4ccc(Cl)cc4)n3)cc2)nc1N | 5.56 µM
* OCC1OC(n2ccc3c(NO)ncnc32)C(O)C1O (centres undefined) | 0.128 µM
* CCOC(=O)c1c(Br)c(-c2ccc(Br)cc2)c(Br)n1C | 23.6 µM
* CC(C)c1ccc(C(=O)Nc2sc3c(c2C#N)CCC(=O)C3)cc1 | 0.318 µM
* CC[C@@]1(O)C(=O)NCc2c1cc1n(c2=O)Cc2cc3c(N)cccc3nc2-1 | 1.15 µM
* CC/C=C\C[C@H](O)C/C=C1/C(=O)C=C[C@@H]1C/C=C\CCCC(=O)N(C)C | 2.2 µM
* NC1CCN(c2nc(Nc3cccc(C(F)(F)F)c3)c3c(=O)[nH]ccc3n2)CC1 | 1.83 µM
* O=C(c1ccc2ncc(-c3nc(NC4CC4)ncc3F)n2c1)N1CCOCC1 | 1.54 µM
